The reported measurements were obtained from ChEMBL document CHEMBL1122347.

System: Rattus norvegicus
Experimental protocol: Antihypertensive activity in DOCA/saline rat dosed at 50 mg/kg, administered perorally expressed as percent fall in blood pressure after 6 h
Assay type: functional
Condition details: route oral
Property measured: Decrease in blood pressure (%)
Give bare numbers, in %.

A selection of reference data follows.
{"columns": ["Item smiles", "Output unit", "Readout number"],
 "data": [
  ["Cl.NS(=O)(=O)N[C@@H]1CCN2CCc3ccccc3[C@@H]2C1", "%", 50],
  ["CCS(=O)(=O)N[C@@H]1CCN2CCc3ccccc3[C@@H]2C1.Cl", "%", 43],
  ["CS(=O)(=O)N[C@@H]1CCN2CCc3ccccc3[C@@H]2C1.Cl", "%", 68],
  ["CCCS(=O)(=O)N[C@@H]1CCN2CCc3ccccc3[C@@H]2C1.Cl", "%", 46],
  ["CN(C)S(=O)(=O)N[C@@H]1CCN2CCc3ccccc3[C@@H]2C1.Cl", "%", 31],
  ["COc1cc2c(cc1OC)[C@@H]1C[C@H](NS(C)(=O)=O)CCN1CC2.Cl", "%", 35]
]}

Hi there! I need Decrease in blood pressure for each item below, if you can.
1. CNS(=O)(=O)N[C@@H]1CCN2CCc3ccccc3[C@@H]2C1.Cl
2. Cl.O=S(=O)(N[C@H]1CCN2CCc3ccccc3[C@@H]2C1)c1ccccc1

1: 18; 2: 18

---

Test system: Rattus norvegicus
Experimental protocol: Antihypertensive activity in DOCA/saline rat dosed at 50 mg/kg, administered perorally expressed as percent fall in blood pressure after 2 h
Format: functional
Condition details: route oral
Assign a class from recorded Decrease in blood pressure; defined classes: low bin: < 30%; mid bin: ≥ 30% and < 40%; high bin: ≥ 40%

{"columns": ["Item smiles", "Label value"],
 "data": [
  ["CCCS(=O)(=O)N(C)[C@@H]1CCN2CCc3ccccc3[C@@H]2C1.Cl", "mid bin"],
  ["COc1cc2c(cc1OC)[C@@H]1C[C@H](NS(N)(=O)=O)CCN1CC2.Cl", "low bin"],
  ["CS(=O)(=O)N[C@@H]1CCN2CCc3ccccc3[C@@H]2C1.Cl", "high bin"],
  ["CCCS(=O)(=O)N[C@@H]1CCN2CCc3ccccc3[C@@H]2C1.Cl", "low bin"],
  ["Cl.NS(=O)(=O)N[C@@H]1CCN2CCc3ccccc3[C@@H]2C1", "high bin"]
]}

Into which bin does this compound go? "CN(C)S(=O)(=O)N[C@@H]1CCN2CCc3ccccc3[C@@H]2C1.Cl"
high bin

Consider "COc1cc2c(cc1OC)[C@@H]1C[C@H](NS(C)(=O)=O)CCN1CC2.Cl" . To which Decrease in blood pressure class does it belong?
high bin

# classify by Decrease in blood pressure band: "CNS(=O)(=O)N[C@@H]1CCN2CCc3ccccc3[C@@H]2C1.Cl"
mid bin

In plain terms, what class is "CCN(CC)S(=O)(=O)N[C@@H]1CCN2CCc3ccccc3[C@@H]2C1.Cl" ?
low bin
